Field: %Inh. Provide a value for each of the molecules that follow.
Tested on: PKAC-alpha;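 also: KINOMEscan kinase panel screen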
Construct: gene PRKACA
Conditions: concentration: 1 μM, replicates: in singlicate; n = 1

Q) Tell us which %Inh value is on record for N#Cc1cnc2cc(-c3cnc(CNCCN4CCOCC4)s3)ccc2c1Nc1ccc(Oc2ccccc2)cc1 [GW664114]
A) 0%

Q) Tell us which %Inh value is on record for NCCC(NC(=O)c1cc(Br)c(-c2ccnc3[nH]ccc23)s1)c1ccccc1.O=C(O)C(F)(F)F.O=C(O)C(F)(F)F (centres unmarked) [GSK1307810]
A) 99.4%

Q) Tell us which %Inh value is on record for Cn1cc(-c2ccc3c(c2)CCN3C(=O)Cc2cc(F)cc(F)c2F)c2c(N)ncnc21 [GSK2634140]
A) 0%

Q) Tell us which %Inh value is on record for Cl.O=C(Nc1ccc(Oc2ccc3[nH]c(NC(=O)c4ccco4)nc3c2)cc1)Nc1cc(C(F)(F)F)ccc1F [GW683134]
A) 0%

Q) Tell us which %Inh value is on record for COC(=O)Nc1nc2cc(Oc3ccc(NC(=O)Nc4cccc(SC)c4)cc3)ccc2[nH]1.Cl [GW697999]
A) 0%

Q) Tell us which %Inh value is on record for CN(c1ccc(NC(=O)Nc2cccc(Cl)c2)cc1)c1ccnc(N)n1.Cl [GW830707]
A) 13%

Q) Tell us which %Inh value is on record for Cc1ccc(NC(=O)c2cccc(N3CCCCC3)c2)cc1-c1ccc(C(=O)NCC2CC2)cc1 [GSK1917008]
A) 0%

Q) Tell us which %Inh value is on record for CCn1c(-c2nonc2N)nc2c(-c3ccccc3)ncc(OCCCN)c21.O=C(O)C(F)(F)F.O=C(O)C(F)(F)F [GSK260205]
A) 97.6%

Attribution: paper PMC5540273
